// provenance: patent US6936636B2

Consider the following compounds and their measured EC50 readings.
TARGET_UNDER_TEST: RXRγ (Homo sapiens)
Sequence (P48443 1-463): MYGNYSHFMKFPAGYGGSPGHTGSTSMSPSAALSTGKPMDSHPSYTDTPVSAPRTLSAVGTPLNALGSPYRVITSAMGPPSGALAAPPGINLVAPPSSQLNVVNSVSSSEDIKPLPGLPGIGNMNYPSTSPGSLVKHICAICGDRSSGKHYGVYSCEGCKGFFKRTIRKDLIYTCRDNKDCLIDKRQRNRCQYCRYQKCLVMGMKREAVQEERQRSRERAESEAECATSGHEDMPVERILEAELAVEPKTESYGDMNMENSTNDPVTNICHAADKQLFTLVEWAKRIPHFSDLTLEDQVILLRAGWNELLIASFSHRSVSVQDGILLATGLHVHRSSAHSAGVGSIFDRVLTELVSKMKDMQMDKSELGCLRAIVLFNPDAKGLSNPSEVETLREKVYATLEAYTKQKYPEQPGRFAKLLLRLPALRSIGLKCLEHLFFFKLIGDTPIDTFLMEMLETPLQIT
TEST_DESCRIPTION: holoreceptor transactivation assay
CONDITIONS_USED: holoreceptor assay
ASSAY_ENDPOINT: EC50 (nM)

COCC1[C@@H](/C=C/C(C)=C/C(=O)O)C1(C)c1cc(C(C)C)cc(C(C)C)c1 (stereo in doubt) [Compound 29] : 16
COC[C@@H]1[C@@H](/C=C/C(C)=C/C(=O)O)C1(C)c1ccc2c(c1)C(C)(C)CCC2(C)C (stereo in doubt) [Compound 23a] : 60
COCC1[C@@H](/C=C/C(C)=C/C(=O)O)C1(C)c1cc(C(C)C)cc(C(C)C)c1 (stereo in doubt) [Compound 31a] : 3.6
COC[C@H]1[C@@H](/C=C/C(C)=C/C(=O)O)[C@@]1(C)c1ccc2c(c1)C(C)(C)CCC2(C)C (stereo in doubt) [Compound 21a] : 6
CCOC[C@H]1[C@@H](/C=C/C(C)=C/C(=O)O)C1(C)c1ccc2c(c1)C(C)(C)CCC2(C)C (stereo in doubt) [Compound 21b] : 44

---

Transactivation % Efficiency RXRβ values for the compounds below.
TARGET_UNDER_TEST: RXRβ (Homo sapiens)
Construct: expressed in transfected cells
TEST_DESCRIPTION: holoreceptor transactivation assay
Format: cell-based
CONDITIONS_USED: efficacy as percentage compared to the standard compound
ASSAY_ENDPOINT: Transactivation % Efficiency RXRβ (%)

COC[C@H]1[C@@H](/C=C/C(C)=C/C(=O)O)[C@@]1(C)c1ccc2c(c1)C(C)(C)CCC2(C)C (stereo in doubt) [Compound 21a] : 38
COCC1[C@@H](/C=C/C(C)=C/C(=O)O)C1(C)c1cc(C(C)C)cc(C(C)C)c1 (stereo in doubt) [Compound 31a] : 90
COC[C@@H]1[C@@H](/C=C/C(C)=C/C(=O)O)C1(C)c1ccc2c(c1)C(C)(C)CCC2(C)C (stereo in doubt) [Compound 23a] : 9
COCC1[C@@H](/C=C/C(C)=C/C(=O)O)C1(C)c1cc(C(C)C)cc(C(C)C)c1 (stereo in doubt) [Compound 29] : 34

---

Target protein (sequence): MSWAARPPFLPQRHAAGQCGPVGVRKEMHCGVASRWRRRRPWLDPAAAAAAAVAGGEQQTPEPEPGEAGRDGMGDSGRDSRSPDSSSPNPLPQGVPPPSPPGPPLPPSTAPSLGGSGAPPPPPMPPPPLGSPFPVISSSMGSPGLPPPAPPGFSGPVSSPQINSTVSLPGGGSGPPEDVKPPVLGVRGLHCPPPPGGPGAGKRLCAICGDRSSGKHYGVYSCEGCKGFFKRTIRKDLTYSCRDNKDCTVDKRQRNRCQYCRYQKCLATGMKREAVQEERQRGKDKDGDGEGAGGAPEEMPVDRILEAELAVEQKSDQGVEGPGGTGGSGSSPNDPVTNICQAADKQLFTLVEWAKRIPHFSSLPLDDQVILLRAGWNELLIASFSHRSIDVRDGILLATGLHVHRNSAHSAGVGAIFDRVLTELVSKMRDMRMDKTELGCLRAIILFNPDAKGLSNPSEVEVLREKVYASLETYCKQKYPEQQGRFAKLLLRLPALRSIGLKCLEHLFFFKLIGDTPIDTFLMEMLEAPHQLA
Recorded Ki values for a group of compounds are listed next.
ASSAY_ENDPOINT: Ki (nM)

COC[C@@H]1[C@@H](/C=C/C(C)=C/C(=O)O)C1(C)c1ccc2c(c1)C(C)(C)CCC2(C)C (stereo in doubt) [Compound 23a] : 188
COCC1[C@@H](/C=C/C(C)=C/C(=O)O)C1(C)c1cc(C(C)C)cc(C(C)C)c1 (stereo in doubt) [Compound 31a] : 25
CCOC[C@H]1[C@@H](/C=C/C(C)=C/C(=O)O)C1(C)c1ccc2c(c1)C(C)(C)CCC2(C)C (stereo in doubt) [Compound 21b] : 227
COCC1[C@@H](/C=C/C(C)=C/C(=O)O)C1(C)c1cc(C(C)C)cc(C(C)C)c1 (stereo in doubt) [Compound 29] : 49
CCOC[C@@H]1[C@@H](/C=C/C(C)=C/C(=O)O)C1(C)c1ccc2c(c1)C(C)(C)CCC2(C)C (stereo in doubt) [Compound 23b] : 121
COC[C@H]1[C@@H](/C=C/C(C)=C/C(=O)O)[C@@]1(C)c1ccc2c(c1)C(C)(C)CCC2(C)C (stereo in doubt) [Compound 21a] : 48
